- Tested on: Plasmodium falciparum
- PROTOCOL_SUMMARY: Antiplasmodial activity against blood stage of chloroquine-sensitive Plasmodium falciparum 3D7 infected in human O positive erythrocytes after 48 hrs by SYBR green-I based fluorescence assay
- Assay type: functional, organism-based
- RECORDED_CONDITIONS: 3D7, 48 h
METRIC_NAME: IC50 (µM)
Kindly answer with a numeric value in µM, unit omitted.

Which measured IC50 value corresponds to `O=C(/C=C/c1ccc(Br)cc1)/C=C/c1ccc(Br)cc1` ?
222

What do we get for `O=C(/C=C/c1cccc([N+](=O)[O-])c1)/C=C/c1cccc([N+](=O)[O-])c1` ?
38.5

What do we get for `O=C(/C=C/c1ccccc1)/C=C/c1ccccc1` ?
213

What do we get for `Cc1ccc(/C=C/C(=O)/C=C/c2ccc(C)cc2)cc1` ?
114

What do we get for `COc1ccc(/C=C/C(=O)/C=C/c2ccc(OC)cc2)cc1` ?
255

What do we get for `COc1ccccc1/C=C/C(=O)/C=C/c1ccccc1OC` ?
74.7

What do we get for Fc1ccc(/C=C/C2=NN(c3ccccc3)C(c3ccc(F)cc3)C2)cc1 (stereo unspecified) ?
9.1

What do we get for `O=C(/C=C/c1ccc(F)cc1)/C=C/c1ccc(F)cc1` ?
133

====

- PROTOCOL_SUMMARY: Cytotoxic activity against human HeLa cells after 24 to 48 hrs by MTT assay
- Type: cell-based
- RECORDED_CONDITIONS: read-out: TC50 (the source's name)
METRIC_NAME: CC50

Which measured CC50 value corresponds to Fc1ccc(/C=C/C2=NN(c3ccccc3)C(c3ccc(F)cc3)C2)cc1 (centres undefined) ?
> 277 µM

What do we get for `O=C(/C=C/c1ccc(Cl)cc1Cl)/C=C/c1ccc(Cl)cc1Cl` ?
> 269 µM

What do we get for `COc1ccc(/C=C/C(=O)/C=C/c2ccc(OC)c(OC)c2)cc1OC` ?
282 µM

What do we get for `O=C(/C=C/c1ccccc1Cl)/C=C/c1ccccc1Cl` ?
231 µM

====

- System: Plasmodium falciparum
- PROTOCOL_SUMMARY: Resistance index, ratio for IC50 for chloroquine-resistant Plasmodium falciparum isolate RKL9 to IC50 for chloroquine-sensitive Plasmodium falciparum 3D7
- Type: functional
Exercise: state measured Ratio IC50 for each of the compounds provided.
Answer with a number only.

Which measured Ratio IC50 value corresponds to `COc1ccc(/C=C/C(=O)/C=C/c2ccc(OC)c(OC)c2)cc1OC` ?
0.85

What do we get for Fc1ccc(/C=C/C2=NN(c3ccccc3)C(c3ccc(F)cc3)C2)cc1 (centres undefined) ?
1.21

What do we get for `O=C(/C=C/c1ccccc1Cl)/C=C/c1ccccc1Cl` ?
1

What do we get for `O=C(/C=C/c1ccc(Cl)cc1Cl)/C=C/c1ccc(Cl)cc1Cl` ?
1.08

====

- System: Plasmodium falciparum
- PROTOCOL_SUMMARY: Antiplasmodial activity against blood stage of chloroquine-sensitive Plasmodium falciparum 3D7 infected in human O positive erythrocytes after 48 hrs by SYBR green-I based fluorescence assay
- Assay type: functional, organism-based
- RECORDED_CONDITIONS: 3D7, 48 h
Exercise: state measured pIC50 for each of the molecules provided.
Convention used: pIC50 is expressed as -log10 of the molar concentration.

Which measured pIC50 value corresponds to `O=C(/C=C/c1ccc(Cl)cc1Cl)/C=C/c1ccc(Cl)cc1Cl` ?
5.00

What do we get for `O=C(/C=C/c1ccccc1Cl)/C=C/c1ccccc1Cl` ?
5.20

What do we get for `O=C(/C=C/c1ccc(Cl)cc1)/C=C/c1ccc(Cl)cc1` ?
4.03

What do we get for `COc1ccc(/C=C/C(=O)/C=C/c2ccc(OC)c(OC)c2)cc1OC` ?
5.71

What do we get for `CN(C)c1ccc(/C=C/C(=O)/C=C/c2ccc(N(C)C)cc2)cc1` ?
3.81

====

- PROTOCOL_SUMMARY: Therapeutic index, TC50 for human HeLa cells to IC50 for chloroquine-resistant Plasmodium falciparum isolate RKL9
- Assay type: cell-based
- RECORDED_CONDITIONS: read-out: TI
METRIC_NAME: selectivity ratio
Answer with a number only.

Which measured selectivity ratio value corresponds to `COc1ccc(/C=C/C(=O)/C=C/c2ccc(OC)c(OC)c2)cc1OC` ?
166

What do we get for `O=C(/C=C/c1ccccc1Cl)/C=C/c1ccccc1Cl` ?
37

====

Exercise: state measured IC50 for each of the molecules provided.
- System: Plasmodium falciparum
- PROTOCOL_SUMMARY: Antiplasmodial activity against blood stage of chloroquine-sensitive Plasmodium falciparum 3D7 infected in human O positive erythrocytes after 48 hrs by SYBR green-I based fluorescence assay
- Assay type: functional, organism-based
- RECORDED_CONDITIONS: 3D7, 48 h

Form entry - test system: Plasmodium falciparum; read-out: IC50; molecule: C(=C\c1ccccc1)/C1=NN(c2ccccc2)C(c2ccccc2)C1 (stereo not drawn)
> 308 µM

What do we get for COc1ccc(/C=C/C2=NN(c3ccccc3)C(c3ccc(OC)cc3)C2)cc1 (stereo not drawn) ?
> 130 µM

What do we get for Cc1ccc(/C=C/C2=NN(c3ccccc3)C(c3ccc(C)cc3)C2)cc1 (stereo not drawn) ?
> 142 µM
